Assign TGI to each entry below.
test system: A549 NSCLC; test: NCI tumour cell line growth inhibition, 48 h
Could you give me the number in µM? Just the number is fine.

Request: Give the reported TGI for this compound. `CCOC(=O)Nc1ccc2c(c1)/C(=N\NC(N)=S)c1ccccc1-2`
Result: 19.7

Request: Give the reported TGI for this compound. `C=CCN=c1sc2c(n1NC(=O)c1cc3ccc1CCc1ccc(cc1)CC3)C(=O)c1ccccc1C2=O`
Result: 5.61

Request: Give the reported TGI for this compound. `Clc1nc(Cl)c2ncn(CC3(Cn4cnc5c(Cl)nc(Cl)nc54)COC3)c2n1`
Result: 1.19

Request: Give the reported TGI for this compound. `C=C1C(=O)O[C@H]2[C@H]1CC/C(CNC(=O)/C=C/c1cc(OC)c(OC)c(OC)c1)=C\CC[C@@]1(C)O[C@@H]21`
Result: 23.7

* * *

Assign TGI to each entry below.
test system: OVCAR-5 ovarian; assay: NCI tumour cell line growth inhibition, 48 h
Could you give me the number in µM? Just the number is fine.

Request: Give the reported TGI for this compound. `O=C(NNC(=S)Nc1ccccc1)c1cc(-c2ccccc2)nc2ccccc12`
Result: 36.3

Request: Give the reported TGI for this compound. COC(=O)C1CC2CCC1(O[Si](C(C)C)(C(C)C)C(C)C)C(O)C2 (stereo unspecified)
Result: 27.2

Request: Give the reported TGI for this compound. `C=C1C(=O)O[C@@H]2C[C@@H](C)[C@@H]3C=CC(=O)[C@@]3(C)[C@@H](O)[C@H]12`
Result: 3.37

* * *

system: PC-3 prostate; test: NCI tumour cell line growth inhibition, 48 h
MEASURED_METRIC: log10 TGI (log10 of the value in µM)
Scale: decimal log of TGI, TGI in µM.

Request: Answer briefly: log10 TGI recorded on PC-3 prostate for `N=C1C(c2nc3ccccc3s2)=C(O)CN1c1ccc(F)c(Cl)c1`
Result: 1.49

Request: Answer briefly: log10 TGI recorded on PC-3 prostate for `CN(CCO)CC[C@H](CSc1ccccc1)Nc1ccc(S(=O)(=O)NC(=O)c2ccc(N3CCC([C@@H](O)c4ccccc4-c4ccc(Cl)cc4)CC3)cc2)cc1S(=O)(=O)C(F)(F)F`
Result: 0.96

Request: Answer briefly: log10 TGI recorded on PC-3 prostate for `CN1CCC2(CC1)ONC1=NCCN12`
Result: 1.82

Request: Answer briefly: log10 TGI recorded on PC-3 prostate for `N#C[C@@H](c1nc2ccccc2s1)c1ncccc1[N+](=O)[O-]`
Result: 1.26

Request: Answer briefly: log10 TGI recorded on PC-3 prostate for `CN(CCNC(=O)c1nn(-c2ccccc2)c2c1Cc1ccccc1-2)CCNC(=O)c1nn(-c2ccccc2)c2c1Cc1ccccc1-2`
Result: 0.68

* * *

system: COLO 205 colon; assay: NCI tumour cell line growth inhibition, 48 h
Assign TGI to each entry below.

Request: Give the reported TGI for this compound. `CCOC(=O)c1c(C)nc2c(c1N)CC(=O)N2Cc1ccc(OC)cc1`
Result: > 100 µM

Request: Give the reported TGI for this compound. CN1CCc2c3n(c4cc(Br)ccc24)[C@H](O)CCCC31 (stereo partly specified)
Result: 3.24 µM

Request: Give the reported TGI for this compound. `Fc1ccc(C(OCCN2CCN(CCCCl)CC2)c2ccc(F)cc2)cc1`
Result: 32.7 µM

Request: Give the reported TGI for this compound. `Cc1c[n+](=O)c2ccccc2n1[O-]`
Result: > 100 µM

Request: Give the reported TGI for this compound. `N=C1C(c2nc3ccccc3s2)=C(O)CN1c1ccc(F)c(Cl)c1`
Result: > 100 µM

Request: Give the reported TGI for this compound. `CCCCCCCCCCCc1nnc(N)o1`
Result: > 100 µM

Request: Give the reported TGI for this compound. `Cc1ccc(NCC(=O)N2CC(=O)Nc3ccccc32)c(C)c1`
Result: > 100 µM

Request: Give the reported TGI for this compound. `O=[N+]([O-])C(=C(Nc1ccccc1)Nc1ccccc1)/C(Cl)=C(\Cl)[N+](=O)[O-]`
Result: 7.08 µM

Request: Give the reported TGI for this compound. OC(Cc1ccncc1)C(Cl)(Cl)Cl (stereo unspecified)
Result: > 100 µM

Request: Give the reported TGI for this compound. `C=C1C(=O)O[C@H]2[C@H]1CC/C(CNC(=O)/C=C/c1cc(OC)c(OC)c(OC)c1)=C\CC[C@@]1(C)O[C@@H]21`
Result: 2.45 µM

Request: Give the reported TGI for this compound. CC1CCC2(O)C3(C)CC4(O)OC2(C1O)C1(O)C3(O)C(OC(=O)c2ccc[nH]2)C(O)(C(C)C)C41C (stereo unspecified)
Result: > 100 µM

Request: Give the reported TGI for this compound. CC(=O)OCCCC(NC(=O)OC(C)(C)C)C(=O)NC(CCCOC(C)=O)C(=O)NC(Cc1ccc([N+](=O)[O-])cc1)C(=O)NCC(=O)OCc1ccccc1 (stereo unspecified)
Result: 31.4 µM

Request: Give the reported TGI for this compound. `O=[N+]([O-])c1c(F)c(F)c2c(c1F)Nc1ccccc1S2`
Result: 27.3 µM

Request: Give the reported TGI for this compound. OC1c2ccccc2CC12Cc1ccccc1C2 (stereo unspecified)
Result: > 100 µM

Request: Give the reported TGI for this compound. `O=C(O)CN(CC(=O)O)Cc1cc(C#Cc2ccc(C#Cc3ccccc3)cc2)cc(CN(CC(=O)O)CC(=O)O)n1`
Result: 36.2 µM

Request: Give the reported TGI for this compound. `CCOC(=O)Nc1ccc2c(c1)/C(=N\NC(N)=S)c1ccccc1-2`
Result: 15 µM

Request: Give the reported TGI for this compound. `COC(=O)c1ccc(-c2nc3cc(Cl)c(Cl)cc3nc2C#N)cc1`
Result: > 100 µM

Request: Give the reported TGI for this compound. O=C(O)C1=C(O)C(C(=O)O)C23CCCCCCCCCCC12C(C(=O)O)C(O)=C3C(=O)O (stereo unspecified)
Result: > 100 µM

Request: Give the reported TGI for this compound. `NCCCOc1ccc([N+](=O)[O-])cc1Cl`
Result: > 100 µM

Request: Give the reported TGI for this compound. C[C@]12C[C@H](CCCCCCNCCOC(=O)NCCCc3ccc(N(CCCl)CCCl)cc3)C3=C4CCC(=O)C=C4CCC3C1CC[C@@H]2O (stereo partly specified)
Result: 3.9 µM

Request: Give the reported TGI for this compound. `CN1CCN(C(=S)N(C(=O)c2ccc(Cl)cc2)c2ccccc2)CC1`
Result: > 100 µM

Request: Give the reported TGI for this compound. `CCN(C(=O)N[C@@H](Cc1ccccc1)C(=O)N[C@@H](CC(C)C)C(=O)OC)c1ccccc1`
Result: 32.2 µM

Request: Give the reported TGI for this compound. O=C(O)CCC(=O)N1c2ccccc2CC1c1c[nH]c2ccccc12 (stereo unspecified)
Result: > 100 µM

Request: Give the reported TGI for this compound. CC(=O)OCC1=C(C(=O)O)N2C(=O)C(NC(=O)CSc3ccncc3)C2SC1 (stereo unspecified)
Result: > 100 µM

Request: Give the reported TGI for this compound. `CCOC(=O)c1nn2c(nc1=O)sc1ccc3ccccc3c12`
Result: > 100 µM

Request: Give the reported TGI for this compound. `O=C1/C(=c2\s/c(=C\c3ccccc3)c(=O)n2-c2ccccc2)SC(=S)N1c1ccccc1`
Result: > 100 µM

Request: Give the reported TGI for this compound. `CCCCCCCCNc1cc2c3c(c1)CCCN3CCC2`
Result: 4.76 µM

Request: Give the reported TGI for this compound. c1cncc(C2(c3cc4ccccc4[nH]3)COCO2)c1 (stereo unspecified)
Result: > 100 µM

Request: Give the reported TGI for this compound. `N#C[C@@H](c1nc2ccccc2s1)c1ncccc1[N+](=O)[O-]`
Result: 8.8 µM

Request: Give the reported TGI for this compound. `COc1cccc(N2CCN(CC(=O)N3CCN(c4nnc(-c5ccc(Cl)cc5)c(-c5ccc(Cl)cc5)n4)CC3)CC2)c1`
Result: > 100 µM

Request: Give the reported TGI for this compound. `CN1CCC2(CC1)ONC1=NCCN12`
Result: > 100 µM

Request: Give the reported TGI for this compound. COc1ccc(C23C(=O)c4ccccc4N2O[C@H]2C(=O)N(c4ccccc4)C(=O)[C@H]23)cc1 (stereo partly specified)
Result: > 100 µM

Request: Give the reported TGI for this compound. `CC1(C)CC(C2=NCCO2)CC(C)(C)N1`
Result: > 100 µM

Request: Give the reported TGI for this compound. BrC1=CCC23CC=C(Br)[C@H]4CC2(COC3)C[C@@H]1O4 (stereo partly specified)
Result: > 100 µM

Request: Give the reported TGI for this compound. `CN1Cc2cc3cc4c(cc3nc2N(C)C1)OCCO4`
Result: > 100 µM

Request: Give the reported TGI for this compound. `CC(=O)C1(Cc2cccc3ccccc23)S(=O)(=O)OCCOS1(=O)=O`
Result: 30.8 µM

Request: Give the reported TGI for this compound. `Cc1c(C)c(C)c(-n2c(=O)n(C)c(=O)n2-n2c(=O)n(C)c(=O)n2-c2c(C)c(C)c(C)c(C)c2C)c(C)c1C`
Result: > 100 µM

Request: Give the reported TGI for this compound. `COc1ccc(/C=C2\NC(=S)N(/C=C3\C(=O)Oc4ccccc4C3=O)C2=O)cc1OC`
Result: > 100 µM

Request: Give the reported TGI for this compound. `O=c1c2ccccc2nc(-c2cc3c(cc2Cl)Sc2nccn2S3(=O)=O)n1-c1ccccc1`
Result: > 100 µM

Request: Give the reported TGI for this compound. COc1ccc(/C=C2\CCC(CNc3ccc(S(N)(=O)=O)cc3)C2=O)cc1 (stereo unspecified)
Result: 34.4 µM

Request: Give the reported TGI for this compound. `CCCc1cc(=O)oc2c3c(c4c(c12)OC(C)(C)CC4)O[C@@H](C)[C@H](C)[C@H]3O`
Result: 28.6 µM
